System: oral mucosa epithelium in vitro model based on human cell line TR146
TEST NAME: Transport study across oral mucosa Transwell model, apical to basolateral, 240 min
MEASUREMENT PARAMETERS: without inhibitor; 100 µM apical (CF 10 µM); mean ± SEM
Here the recorded permeability coefficient is given for each entry.
MEASURED PARAMETER: permeability coefficient (µm/min)

> print(dat)
                                   molecule  result.number
1            O=C(O)Cc1ccccc1Nc1c(Cl)cccc1Cl           3.64
2  CN1C(C(=O)Nc2ccccn2)=C(O)c2ccccc2S1(=O)=O           4.86
3  Cc1ccc(-c2cc(C(F)(F)F)nn2-c2ccc(S(N)(=O)=O)cc2)cc1           0.44
4  CC(C)Cc1ccc(C(C)C(=O)O)cc1 (stereo not shown)           5.77
